// values below are Ki; system is Prothrombin (Homo sapiens)
Give just the number in nM; leave the unit off.

Return reported Ki; argument: `N=C(N)c1cccc(Oc2cccc(Oc3cccc(C(=N)N)c3)n2)c1`
14000

Do the same for `Cn1ccnc1-c1cccc(Oc2cc(C(=O)O)cc(Oc3cc(C(=N)N)ccc3O)n2)c1` please
180

Do the same for `Cc1c(F)c(Oc2cccc(C(=O)N(C)C)c2)nc(Oc2cc(C(=N)N)ccc2N)c1F` please
2300

Do the same for `CN1CCN=C1c1cccc(Oc2nc(Oc3cc(C(=N)N)ccc3O)c(F)c(O[C@H]3CN[C@H](C(=O)O)C3)c2F)c1` please
250

* * *

experiment: plasma concentration was measured against the Nonhuman primates (baboon) using FXa inhibition assay after 6 h; uM; format: ADME, organism-based, Papio
Recorded measurements of concentration at 6 h, one per entry
Give just the number in nM; leave the unit off.

The following compounds have reported results that may help.
{"columns": ["COMPOUND", "concentration at 6 h (nM)"],
 "data": [
  ["CN1CCN=C1c1cccc(Oc2nc(Oc3cc(C(=N)N)ccc3O)c(F)c(N(C)CC(=O)O)c2F)c1 [FIDEXABAN]", 1000],
  ["CN1CCN=C1c1cccc(Oc2nc(Oc3cc(C(=N)N)ccc3O)c(F)c(OC3CCN(CC(=O)O)CC3)c2F)c1", 700]
]}

Turning to the following compound.
Return reported concentration at 6 h; argument: `CCOC(=O)[C@@H]1C[C@@H](Oc2c(F)c(Oc3cccc(C4=NCCN4C)c3)nc(Oc3cc(C(=N)N)ccc3O)c2F)CN1`
300

* * *

molecular target: Coagulation factor X (Homo sapiens, UniProt P00742); experiment: Inhibitory potency was measured against human coagulation factor X
Sequence (P00742 41-179 limits assumed): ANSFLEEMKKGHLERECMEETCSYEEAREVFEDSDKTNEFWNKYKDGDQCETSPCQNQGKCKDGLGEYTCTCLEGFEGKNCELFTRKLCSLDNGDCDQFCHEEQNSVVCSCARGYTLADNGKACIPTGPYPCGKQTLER
Sequence (P00742 235-488 limits assumed): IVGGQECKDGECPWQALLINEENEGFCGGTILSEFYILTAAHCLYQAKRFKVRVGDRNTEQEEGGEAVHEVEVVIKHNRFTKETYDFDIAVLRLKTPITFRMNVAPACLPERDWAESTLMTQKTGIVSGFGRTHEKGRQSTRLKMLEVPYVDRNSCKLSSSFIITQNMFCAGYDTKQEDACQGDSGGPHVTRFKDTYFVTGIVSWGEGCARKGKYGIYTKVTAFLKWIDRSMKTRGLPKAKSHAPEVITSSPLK
Recorded measurements of pKi, one per entry
// pKi is dimensionless: -log10 of concentration (M)

The following molecules have reported results that may help.
{"columns": ["COMPOUND STRING", "pKi"],
 "data": [
  ["CCOC(=O)[C@@H]1C[C@@H](Oc2c(F)c(Oc3cccc(C4=NCCN4C)c3)nc(Oc3cc(C(=N)N)ccc3O)c2F)CN1", 9.37],
  ["Cc1c(F)c(Oc2cccc(C(=N)N)c2)nc(Oc2cccc(N(C)C)c2)c1F", 6.80],
  ["Cc1c(F)c(Oc2cccc(C(=O)N(C)C)c2)nc(Oc2cc(C(=N)N)ccc2N)c1F", 7.85],
  ["CNC(=O)c1cccc(Oc2nc(Oc3cccc(C(=N)N)c3)c(F)c(C)c2F)c1", 5.89],
  ["CCOC(=O)CN(C)c1c(F)c(Oc2cccc(C3=NCCN3C)c2)nc(Oc2cc(C(=N)N)ccc2O)c1F", 9.59],
  ["N=C(N)c1ccc(Oc2cccc(Oc3ccc(C(=N)N)cc3)n2)cc1", 6.40],
  ["N=C(N)c1cccc(Oc2cc(C(=O)O)cc(Oc3cccc(C(=N)N)c3)n2)c1", 7.23],
  ["CN(C)C(=O)c1cccc(Oc2cc(C(=O)O)cc(Oc3cc(C(=N)N)ccc3O)n2)c1", 8.41]
]}

Return reported pKi; argument: `N=C(N)c1ccc(Oc2cccc(Oc3cccc(C(=N)N)c3)n2)cc1`
6.89

Do the same for `N=C(N)c1cccc(Oc2nc(Oc3cccc(C(=N)N)c3)c(Cl)cc2Cl)c1` please
6.89

Do the same for `CN1CCN=C1c1cccc(Oc2cc(C(=O)O)cc(Oc3cc(C(=N)N)ccc3O)n2)c1` please
8.62

Do the same for `N=C(N)c1ccc(O)c(Oc2cc(C(=O)O)cc(Oc3cccc(C4=NCCN4)c3)n2)c1` please
7.07

All values here come from ChEMBL document CHEMBL1131090.
